The origin of these recorded values is patent US12552753B2.

Target: UniProt P51685
Assay: Tango assay (Tango-CCR8-Gal4-CHO-K1 cells, CCL1-stimulated, ONE-Glo luminescence)
Details: Tango Assay IC50, Inhibition of CCR8 Tango cell in vitro
pIC50: −log10 of the molar value. Counter-ions that a name gives are not always drawn.
// reported pIC50 per item

(Q) // fetch pIC50 given entry Cc1ccccc1C(=O)Nc1ccc(S(=O)(=O)N[C@H](C)C2CCN(C)CC2)c(C)c1Cl [Compound 308]
(A) < 4.00

(Q) Give the reported value of pIC50 for this record: Cc1cc(S(=O)(=O)N(C)[C@H](C)C2CCNCC2)ccc1NC(=O)c1ccccc1C [Compound 237A, hydrochloride]
(A) < 4.00

(Q) Write down pIC50 measured for item Cc1ccccc1C(=O)Nc1ccc(S(=O)(=O)N[C@H](C)C2CCN(C(=O)OC(C)(C)C)CC2)cc1C#N [Compound 193]
(A) < 5.00

(Q) Please report the measured pIC50 for Cc1ccccc1C(=O)Nc1ccc(S(=O)(=O)NCc2ccccc2)c2ccccc12 [Compound 281]
(A) < 4.00

(Q) Note pIC50 for the compound shown: Cc1ccccc1C(=O)Nc1ccc(S(=O)(=O)NC(C)C2CCCCN2)c2ccccc12 (centres unmarked) [Compound 69A]
(A) < 5.00

###

Target: CCR8 (Homo sapiens)
Sequence (P51685 whole entry, the tested form may be a part): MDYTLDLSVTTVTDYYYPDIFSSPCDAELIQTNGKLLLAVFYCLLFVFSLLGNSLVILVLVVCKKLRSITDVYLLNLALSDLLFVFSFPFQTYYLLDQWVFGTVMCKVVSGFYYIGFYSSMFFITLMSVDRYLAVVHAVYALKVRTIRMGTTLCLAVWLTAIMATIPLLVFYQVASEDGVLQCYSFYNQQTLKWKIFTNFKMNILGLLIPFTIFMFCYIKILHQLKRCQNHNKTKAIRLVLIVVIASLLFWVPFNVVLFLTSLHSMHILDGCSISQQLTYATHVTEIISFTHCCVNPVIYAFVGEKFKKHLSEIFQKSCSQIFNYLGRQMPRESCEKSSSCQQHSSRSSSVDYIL
Experiment: Tango assay (Tango-CCR8-Gal4-CHO-K1 cells, CCL1-stimulated, ONE-Glo luminescence)
Conditions: Tango Assay IC50, Inhibition of CCR8 Tango cell in vitro
pIC50: −log10 of the molar value. Counter-ions that a name gives are not always drawn.
Catalogue of molecules with associated pIC50

Field: example entries. Status: answers known.
Molecule | Tested On | Readout | Observed Value
CC(NS(=O)(=O)c1cccc(N2CCCC2C(=O)O)c1)C1CCCCC1 (stereo not shown) | CCR8 (Homo sapiens) | pIC50 | < 5.00
Cc1ccccc1C(=O)Nc1ccc(S(=O)(=O)NC(C)C2CCCN(C(=O)CN)C2)c2ccccc12 (single isomer, unassigned) [Compound 156D] | CCR8 (Homo sapiens) | pIC50 | < 5.00
Cc1cc(S(=O)(=O)N[C@H](C)C2CCNCC2)ccc1NC(=O)c1ccncc1C [Compound 251A, hydrochloride] | CCR8 (Homo sapiens) | pIC50 | < 4.00

Proceed to the following item.
(Q) Specify reported pIC50 for the molecule shown: Cc1ccccc1C(=O)Nc1ccc(S(=O)(=O)Nc2ccc3c(c2)CN(C(=O)CN(C)C)CC3)c2ccccc12
(A) < 5.00

###

Biological target: CCR8 (Homo sapiens)
Assay: Tango assay (Tango-CCR8-Gal4-CHO-K1 cells, CCL1-stimulated, ONE-Glo luminescence)
Conditions: read-out: Tango Assay IC50, Inhibition of CCR8 Tango cell in vitro
pIC50: −log10 of the molar value.
Quick reference for pIC50 among some compounds

(Q) Tell me its pIC50 given Cc1ccccc1C(=O)Nc1ccc(S(=O)(=O)NC(C)C2CCCN(C(=O)[C@H](C)NC(=O)OC(C)(C)C)C2)c2ccccc12 (single isomer, unassigned) [Compound 157B] as the entry.
(A) < 5.00

(Q) Please list pIC50 recorded for the compound Cc1ccccc1C(=O)Nc1ccc(S(=O)(=O)NC(C)C2CCCCN2)c2ccccc12 (stereo not drawn) [Compound 69B]
(A) < 5.00

(Q) Identify pIC50 associated with the compound Cc1ccccc1C(=O)Nc1ccc(S(=O)(=O)Nc2ccc3c(c2)C(=O)N(CCN(C)C)CCO3)c2ccccc12 [Compound 96]
(A) < 5.00
